Source: ChEMBL document CHEMBL1201862

# System: HT-29
# methodDescription: NCI tumour cell line growth inhibition, 48 h
Active and inactive are the calls of the source. No stated cut-off is given here; in the data, active = GI50 up to about 1.1 µM and inactive = higher.
GI50 values by entry

molecule: C=C1CC[C@@H](Br)C(C)(C)[C@]12CCC(C)(O)C(Cl)C2 (stereo partly specified)
GI50: 16.8 µM (inactive)

molecule: COc1ccc(CN=C(N)N)c2ccccc12
GI50: 15.8 µM (inactive)

molecule: CO[C@@H]1C=C[C@@]23c4cc5c(cc4C(O)N(CC2O)C3C1)OCO5 (stereo partly specified)
GI50: 3 µM (inactive)

molecule: O=C1/C(=N\O)C2CCC1C2 (stereo unspecified)
GI50: > 100 µM (inactive)

molecule: CC(=O)OCC1OC(SC2=NC(=O)/C(=C/c3ccccc3)S2)C(OC(C)=O)C(OC(C)=O)C1OC(C)=O (stereo unspecified)
GI50: 37.8 µM (inactive)

molecule: O=C(NN1C(=O)CSC1c1ccc(C(F)(F)F)cc1)c1ccncc1 (stereo unspecified)
GI50: > 100 µM (inactive)
